In what follows, each item is paired with its pKi for Carbonic anhydrase 2 (Homo sapiens, UniProt P00918).
A value of pKi is the negative decimal logarithm of a concentration given in moles per litre.

Answered cases to consult:
Compound | pKi
Oc1cccc(O)c1O | 6.28
Oc1ccc(-c2ccccc2)cc1 [4-Hydroxybiphenyl] | 5.13
CS(=O)(=O)Oc1ccc(OS(C)(=O)=O)cc1 [1,4-Phenylene dimethanesulfonate (6)] | 5.37
COc1cc(C=O)ccc1OS(C)(=O)=O | 5.19
CS(=O)(=O)Oc1cccc(OS(C)(=O)=O)c1OS(C)(=O)=O | 4.45

Task item: # query: pKi of entry COc1ccccc1O [1-Hydroxy-2-methoxybenzene]
Reply: 5.53

Task item: Moving on to CS(=O)(=O)Oc1ccccc1 [Phenylmethanesulfonate (4)]
Reply: 5.06

Task item: Moving on to Oc1ccccc1
Reply: 5.25

Task item: Moving on to CS(=O)(=O)Oc1ccccc1OS(C)(=O)=O [1,2-Phenylenedimethanesulfonate (13)]
Reply: 4.55

Task item: Moving on to CS(=O)(=O)Oc1ccc(-c2ccccc2)cc1 [Biphenyl-4-ylmethanesulfonate (5)]
Reply: 4.91
